Assignment: determine reported TGI for the given molecules.
system: SK-OV-3 ovarian; assay: NCI tumour cell line growth inhibition, 48 h

Value lookup for TGI; key = Cc1ccc(NC(=O)c2cccc(C(C)(C)C#N)c2)cc1Nc1ccc2ncn(C)c(=O)c2c1
> 100 µM

Continue with CCOC(C)O[C@H]1C(=O)OCC1(C)C (stereo not given in full)
> 100 µM

Continue with Cc1cc2nc(C=C(C(F)(F)F)C(F)(F)F)oc2cc1C
> 10 µM

Continue with COc1c2c(cc3c1OCO3)[C@]13C=C[C@H](OC)C[C@H]1N(C2)CC3O (stereo not given in full)
> 100 µM

Continue with CSc1cc(Cl)c(C)cc1S(=O)(=O)NC(=O)NNc1cccc(C(F)(F)F)n1
> 100 µM

###

test system: SW-620 colon; assay: NCI tumour cell line growth inhibition, 48 h; in the data active = GI50 below about 0.43 µM; inactive = the rest
Please state which outcome applies, choosing from 1 (yes) = active, 0 (no) = inactive

Hey, what did the test say about COc1ccc(C(=O)c2cc(C)c(OC)c(C)c2)c(OC)c1O ?
1 (yes)

Continue with COc1ccc(C(=O)c2cc(OC)c(OC)c(OC)c2)cc1/C=C/C(=O)c1ccc(F)cc1
0 (no)

Continue with Cc1ccc(N=C/C=C(\Nc2ccc(C)cc2)c2ccc(Cl)cc2)cc1
0 (no)

Continue with CC1=CC(=O)C=CC1=O
0 (no)

Continue with CCCC(CCC)NCC(O)c1cc(-c2ccc(C(F)(F)F)cc2)nc(C(F)(F)F)c1 (stereo not given)
0 (no)

###

tested on: NCI-H460 lung
Please state which outcome applies, choosing from active, inactive

Hey, what did the test say about S=c1ssc(N2CCOCC2)c1Cl ?
inactive

Continue with COCC[C@H]1CCC/C=C/[C@@H]2C[C@H](O)C[C@H]2[C@H](O)/C=C/C(=O)O1
active

Continue with C=C1C(=O)O[C@H]2[C@H]1CC/C(COC(=O)NCCCCNC(=O)OC/C1=C/CC[C@@]3(C)O[C@H]3[C@H]3OC(=O)C(=C)[C@@H]3CC1)=C\CC[C@@]1(C)O[C@@H]21
inactive

Continue with NC(=O)c1cc(Cl)ccc1NC(=O)/C=C/c1ccccc1
inactive

Continue with CC12OC(C(=O)C13CC3)C1C(=O)c3ccc4c(ccc5ccccc54)c3C(=O)C12 (stereo unspecified)
inactive

Continue with COc1c(C(=O)/C=C/c2ccccc2)c(O)cc2occc12
inactive

Continue with Cc1cc2ncnn2cc1Nc1ncc2c(n1)n(C1CCOCC1)c(=O)n2C
inactive

Continue with C=C(C)[C@@H]1CC[C@]2(CO)CC[C@]3(C)[C@H](CC[C@@H]4[C@@]5(C)C=C(C#N)C(=O)C(C)(C)[C@@H]5CC[C@]43C)[C@@H]12
inactive

Continue with Nc1ccccc1C#C/C=C\C#Cc1ccccc1N
inactive

Continue with O=C1c2cccnc2-c2nc(-c3ccc(Cl)cc3)cc3c2c1nc1ccccc13
inactive

Continue with CC1(C)C(=O)/C(=C\c2cccnc2)C[C@]2(C)[C@H]3CC[C@@H]4[C@H]5[C@H](C(=O)/C=C/c6cccnc6)CC[C@]5(C(=O)O)CC[C@@]4(C)[C@]3(C)CC[C@@H]12
inactive

###

test system: COLO 205 colon; experiment: NCI tumour cell line growth inhibition, 48 h
Assignment: determine reported TGI for the given compounds.

Value lookup for TGI; key = COc1cc(Br)cc2cc(-c3cn4c(n3)sc3ccccc34)c(=O)oc12
> 75 µM

Continue with COC(=O)C1=CS/C(=C2\S[C@@H]3[C@H](S2)[C@H]2C=C[C@@H]3C2)S1
> 100 µM

Continue with C[C@@H](c1ccccc1)n1c(N)c(C#N)c2ccc([N+](=O)[O-])cc2c1=O
30.8 µM

Continue with C=CCCC1(CC(Sc2ccccc2)P(=O)(c2ccccc2)c2ccccc2)OCCO1 (stereo not given)
> 10 µM

Continue with COc1cc2cc3c4cc(OC)c(OC)cc4cc[n+]3c(C)c2cc1OC (tested in a mixture with another compound)
> 87.9 µM
